Biological target: NK2 (Homo sapiens)
Sequence (P21452 1-398): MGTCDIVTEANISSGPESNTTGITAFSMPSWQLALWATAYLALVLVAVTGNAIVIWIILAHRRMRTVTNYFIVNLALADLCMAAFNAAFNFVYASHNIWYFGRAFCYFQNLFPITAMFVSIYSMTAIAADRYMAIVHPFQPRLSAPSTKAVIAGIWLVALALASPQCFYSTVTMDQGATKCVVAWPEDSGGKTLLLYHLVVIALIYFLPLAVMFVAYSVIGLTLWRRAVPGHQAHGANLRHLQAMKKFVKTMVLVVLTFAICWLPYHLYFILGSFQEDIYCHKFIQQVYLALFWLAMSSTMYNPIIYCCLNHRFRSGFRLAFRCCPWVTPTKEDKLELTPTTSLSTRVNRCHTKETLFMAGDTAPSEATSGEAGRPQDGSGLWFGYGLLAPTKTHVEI
Assay: Signal transduction (ST), intracellular Ca++ (FLIPR), NK2
Assay type: cell-based
Conditions: antagonist, read-out: NK2 pIC50 (converted)
measured parameter: IC50 (µM)
I only need the number, in µM, no unit after it.

The examples below pair each entry with its known result.
molecule=O=C(c1cc(C(F)(F)F)cc(C(F)(F)F)c1)N1CC[C@H](N2CCC3(CC2)CCN(S(=O)(=O)Cc2cccc(Cl)c2)CC3)C[C@H]1Cc1ccccc1 target_desc="NK2 (Homo sapiens)" measured_parameter=IC50 quantity_unit=µM endpoint_result=4.68
molecule="O=C(C1CC1)N1CCCC2(CCCN([C@H]3CCN(C(=O)c4cc(C(F)(F)F)cc(C(F)(F)F)c4)[C@H](Cc4ccccc4)C3)C2)C1 (stereo partly drawn)" target_desc="NK2 (Homo sapiens)" measured_parameter=IC50 quantity_unit=µM endpoint_result=2.63

# next molecule below
The reported IC50 of the molecule "O=C(c1cc(C(F)(F)F)cc(C(F)(F)F)c1)N1CC[C@H](N2CCC3(CC2)CCN(S(=O)(=O)c2ccsc2)CC3)C[C@H]1Cc1ccccc1" was 1.1
